The reader will find reported PBM binding z-score values listed item by item below.
Test system: PPARg:RXRa (NR concentration 180 nM, RXRa partner concentration 90 nM)
Assay: PBM binding z-score (relative to random genomic background probes); higher = stronger binding; sequences stand for … in GC…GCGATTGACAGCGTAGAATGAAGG
Quantity Measured: PBM binding z-score

* CCTTACGGGTCACTCCAGGTTAGAGCATCGGAGT | 3.19
* AGAACGAGGGCAATGGGTTGATAGCACGGGTGGC | 1.78
* ACTTACGGGTCAACGAGGTTATAGCTCGCGTATA | 5.51

* * *

Test system: THRa homodimer (NR concentration 90 nM)
Assay: PBM binding z-score (relative to random genomic background probes); higher = stronger binding; sequences stand for … in GC…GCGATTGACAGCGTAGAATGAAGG
Quantity Measured: PBM binding z-score

• AGAATGAGCTTACCAAAGATCAGGGAAACGCTTG = -0.963
• TCTTGTAGATCAGCAGGGTAAGAAAGCTGGCCAA = -0.567
• ACTAGCGGGCCAAGTTTGGGTCACTCAAACAAAG = 0.811
• ATCTCTAGGTATCCAAGTTCAGTGAATGCCGAAC = 0.736
• AGTCAAAGTTCATCTAGGTGACGTAAGATATGCT = 0.193
• TCATCTAGGTAAACAGGTGAAAGTCCGTAAGTTA = 0.459
• ATCTATAGGTAACAAGTTCAGTGAAAGAGAGGAC = 0.91
• CAAACTAGGACAAGAGGTCAAAGTCCGCTTCCCG = 1.89
• CGTCCAAGGTCAGAGAGGTGAGTGAATGCCGAGT = 2.28
• ATCTCTAGGTAACAAGTTCCGTGAAAGAGAGGAC = 0.899
• CAAACTAGGTCACGAAAGGTAAAAGTCGAATGAC = 1.49
• CATACAAGGTCAGCTAGGCCAGAGTAGGGACGGC = 1.97
• CGAACTAGGTCATTGACAGGACCGTGAATAGTAA = 0.476
• CCAGCTAGGTCAATGGTCAGCTAAAGCAGCTCGC = 0.209
• CGTCGAAGGTCAGCAGGTCAGTGAAAGCGACGTG = 0.495
• ATATGTAGGTGAGCTGGGGTCATTCAGACTAGGC = 3.37
• CCTGCAAGGTCATGGTCAGCTAATCTACAGTATG = 2.86
• CTCGAAAGCTCGTGCTCAGGTGAGTATACCAAAC = 0.274
• AGAACGAGGGCAATTAGTTGATAGCACGGGTGGC = -0.172

Attribution: the supplement of paper PMC6555819
